Biological target: P2X purinoceptor 3 (Homo sapiens)
Sequence (P56373 whole entry): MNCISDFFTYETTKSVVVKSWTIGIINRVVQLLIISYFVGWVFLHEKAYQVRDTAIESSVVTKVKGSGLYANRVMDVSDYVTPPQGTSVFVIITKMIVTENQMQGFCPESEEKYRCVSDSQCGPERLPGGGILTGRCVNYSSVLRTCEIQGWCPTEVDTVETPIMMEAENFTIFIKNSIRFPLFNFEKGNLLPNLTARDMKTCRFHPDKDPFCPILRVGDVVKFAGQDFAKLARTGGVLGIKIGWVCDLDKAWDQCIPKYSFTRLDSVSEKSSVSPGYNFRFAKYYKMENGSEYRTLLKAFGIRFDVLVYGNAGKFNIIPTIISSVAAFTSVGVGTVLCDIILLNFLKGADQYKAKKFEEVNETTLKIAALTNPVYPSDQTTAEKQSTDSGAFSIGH
Provide the reported IC50 of each item.

Asked: Recorded IC50 for COC(=O)N1CCO[C@@H](Cc2c(-c3c(F)cc(-n4cnnn4)cc3F)nc3cc(C)ccn23)C1 , please?
Given back: < 10 nM

Asked: Same again, this time with COC(=O)N1CCO[C@@H](Cc2c(-c3c(F)cc(NC(=O)C4(C#N)CC4)cc3F)nc3cc(C)ccn23)C1
Given back: < 100 nM

Asked: Same again, this time with CCC(=O)c1ccn(-c2cc(F)c(-c3nc4cc(C)ccn4c3C[C@H]3CN(C(=O)OC)CCO3)c(F)c2)n1
Given back: < 100 nM

Asked: Same again, this time with COC(=O)N1CCO[C@@H](Cc2c(-c3c(F)cc(-c4ccc(C(N)=O)cn4)cc3F)nc3cc(C)ccn23)C1
Given back: < 1000 nM

Asked: Same again, this time with COC(=O)N1CCO[C@@H](Cc2c(-c3c(F)cc(-c4nc(C(C)(C)O)co4)cc3F)nc3cc(C)ccn23)C1
Given back: < 100 nM

Asked: Same again, this time with CCC(=O)N1CCO[C@@H](Cc2c(-c3c(F)cc(-c4ncc[nH]4)cc3F)nc3cc(C)ccn23)C1
Given back: < 10 nM
